Collected IC50 values appear next to each entry.
targetOfAssay: Tyrosine-protein phosphatase non-receptor type 1 (Homo sapiens, UniProt P18031)
procedureText: Inhibition of human recombinant PTP1B assessed as inhibition of para-nitrophenyl phosphate to para-nitrophenol conversion by spectrophotometry
Your answer should be a plain number; it is taken to be in µM.

Past entries and their recorded results:
COc1ccc(-c2ccc(Cn3ccc4c3C(=O)NCC/C4=N\Nc3ccccn3)cc2)cc1 14.9
CCCCOc1ccc(-c2ccc(Cn3ccc4c3C(=O)NCCC4=O)cc2)cc1 16.4

Test system Tyrosine-protein phosphatase non-receptor type 1 (Homo sapiens, UniProt P18031); read-out IC50; what value for COc1ccc(-c2ccc(Cn3c4c(c5ccccc53)C(=O)CCNC4=O)cc2)cc1 ?
13.9

###

targetOfAssay: Tyrosine-protein phosphatase non-receptor type 1 (Homo sapiens) (UniProt P18031)
Sequence (whole entry): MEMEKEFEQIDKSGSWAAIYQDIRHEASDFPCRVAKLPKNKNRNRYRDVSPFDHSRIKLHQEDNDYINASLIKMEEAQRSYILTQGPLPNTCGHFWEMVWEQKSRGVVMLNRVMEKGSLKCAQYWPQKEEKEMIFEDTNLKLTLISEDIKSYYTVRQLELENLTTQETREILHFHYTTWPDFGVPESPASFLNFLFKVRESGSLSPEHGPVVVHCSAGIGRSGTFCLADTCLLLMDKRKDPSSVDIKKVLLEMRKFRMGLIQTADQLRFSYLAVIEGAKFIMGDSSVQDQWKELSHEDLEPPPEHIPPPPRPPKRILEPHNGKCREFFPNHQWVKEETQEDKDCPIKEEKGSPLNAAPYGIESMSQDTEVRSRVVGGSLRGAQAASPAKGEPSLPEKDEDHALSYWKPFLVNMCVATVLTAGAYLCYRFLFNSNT
procedureText: Inhibition of human recombinant PTP1B assessed as inhibition of para-nitrophenyl phosphate to para-nitrophenol conversion at 100 uM by spectrophotometry
Active and inactive are the calls of the source. No cut-off for these calls is given here.
measuredQuantity: inhibition

NC(=O)c1ccccc1-c1ccc(Cn2ccc3c2C(=O)NCCC3=O)cc1 inactive
O=C1CCNC(=O)c2c1ccn2-c1ccc(-c2ccccc2)cc1 inactive
O=C1CCN(Cc2ccccc2)C(=O)c2c1ccn2Cc1ccccc1 inactive

###

targetOfAssay: Tyrosine-protein phosphatase non-receptor type 1 (Homo sapiens)
Sequence (whole entry): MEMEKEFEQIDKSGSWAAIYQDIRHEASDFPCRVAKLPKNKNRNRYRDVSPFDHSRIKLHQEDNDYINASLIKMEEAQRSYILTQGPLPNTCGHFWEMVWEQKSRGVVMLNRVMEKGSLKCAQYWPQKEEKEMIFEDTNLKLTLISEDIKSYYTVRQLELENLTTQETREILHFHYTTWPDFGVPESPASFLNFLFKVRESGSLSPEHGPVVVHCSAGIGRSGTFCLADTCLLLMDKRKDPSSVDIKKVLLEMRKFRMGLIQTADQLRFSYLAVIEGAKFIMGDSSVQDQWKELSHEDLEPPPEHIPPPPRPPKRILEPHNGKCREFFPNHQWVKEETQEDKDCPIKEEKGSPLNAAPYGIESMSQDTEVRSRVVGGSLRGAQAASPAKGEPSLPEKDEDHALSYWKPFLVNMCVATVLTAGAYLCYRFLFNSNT
procedureText: Inhibition of human recombinant PTP1B assessed as inhibition of para-nitrophenyl phosphate to para-nitrophenol conversion at 100 uM by spectrophotometry
Calls of active or inactive are those of the source. No cut-off for these calls is given here.
The reply should name one outcome from t (active), f (inactive)

Observe how each entry below is paired with its result.
compound	label
O=C1NCC=Cc2ccn(Cc3ccccc3)c21	f
COc1ccc(-c2ccc(Cn3ccc4c3C(=O)NCCC4=O)cc2)cc1	t
O=C1NCCC(O)c2ccn(Cc3ccc(-c4ccccc4)cc3)c21 (configuration not stated)	f

Test call for this compound, please: O=C1NCCC(O)c2ccn(Cc3ccccc3)c21 (configuration not stated)
f

Recorded test call requested for COc1ccc(-n2ccc3c2C(=O)NCCC3=O)cc1
f

Recorded test outcome, item O=C1CCNC(=O)c2[nH]ccc21
t

Cited source for all entries: ChEMBL document CHEMBL1795299
